Test system: Potassium voltage-gated channel subfamily H member 2, brain isoform KCNH2 3.1 (human)
Assay: qHTS for Inhibitors of KCHN2 3.1: Mutant qHTS
Conditions: U2OS KCNH2 3.1, thallium flux FluxOr
In all, about 340,000 compounds went through this assay and about 3,300 (0.97%) were called active.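 Rule for the calls: active = maximum activity change below -70%; inconclusive = maximum activity change from -70% to -50%; inactive = maximum activity change above -50%.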 Only a selection was taken, and actives are over-represented in it overall.
Labels: active, inactive

[[record]]
compound = "CC(=O)Nc1c(-c2ccc(C)cc2)nc2ccc(Cl)cn12"
answerlabel = "inactive"

[[record]]
compound = "CCCC(NC(=O)c1ccccc1)c1nc2ccccc2n1Cc1ccc(C(=O)OC)o1 (centres undefined)"
answerlabel = "active"

[[record]]
compound = "CC1=C(C(=O)N2CCOCC2)CC(CC(=O)NCC2CCCCC2)C(=O)N1Cc1ccc(F)cc1 (centres undefined)"
answerlabel = "inactive"

[[record]]
compound = "Cc1noc(C)c1S(=O)(=O)N(C)C[C@H]1OCCCC[C@@H](C)Oc2ccc(NC(=O)CCCN(C)C)cc2C(=O)N([C@H](C)CO)C[C@@H]1C"
answerlabel = "inactive"

[[record]]
compound = "CCOC(=O)C=Cc1ccc(C(=O)OCC)[nH]1"
answerlabel = "inactive"

[[record]]
compound = "CC1=C(C(=O)Nc2cccc(C(=O)NCC(C)c3ccccc3)c2)SCCO1 (centres undefined)"
answerlabel = "inactive"

[[record]]
compound = "Cc1noc(/C=C/c2ccco2)c1S(=O)(=O)N1CCC(C(=O)N2CCc3ccccc32)CC1"
answerlabel = "inactive"

[[record]]
compound = "COC(=O)c1ccc(Cc2ccccc2)o1"
answerlabel = "inactive"

[[record]]
compound = "CC(C)Oc1ccc(/C=N/NC(=O)c2nnn(-c3nonc3N)c2CN(C)C2CCCCC2)cc1"
answerlabel = "active"

[[record]]
compound = "Cc1cccc(N2C(=O)N3[C@H](c4ccc(F)cc4)[C@@H]4C(=O)N(C5CCCCC5)C(=O)[C@@H]4[C@]3(Cc3ccccc3)C2=O)c1"
answerlabel = "active"

[[record]]
compound = "O=C1[C@H]2[C@@H](c3ccc(F)cc3)N3C(=O)N(c4ccc(C(F)(F)F)cc4)C(=O)[C@@]3(Cc3ccccc3)[C@H]2C(=O)N1C1CCCCC1"
answerlabel = "inactive"

[[record]]
compound = "CCN(CC)C(=O)C1=C(C)N(Cc2ccc(OC)cc2)C(=O)C(CC(=O)NCc2ccco2)C1 (centres undefined)"
answerlabel = "inactive"

[[record]]
compound = "COc1ccc(NC(=O)CCCOc2ccc(C(C)=O)cc2)cc1S(=O)(=O)N1CCCCC1"
answerlabel = "inactive"

[[record]]
compound = "CC1C(=O)N(Cc2cn(CC3CCCCC3)nn2)CCS(=O)(=O)N1Cc1ccc(-c2cccc(N(C)C)c2)cc1 (centres undefined)"
answerlabel = "inactive"

[[record]]
compound = "Nc1nonc1-n1nnc(C(=O)N/N=C\\c2ccncc2)c1CN1CCCCC1"
answerlabel = "inactive"

[[record]]
compound = "Nc1cc(=O)c2[nH]cnc2[nH]1"
answerlabel = "inactive"

[[record]]
compound = "C[C@@H]1CN([C@@H](C)CO)C(=O)CCCn2nncc2CO[C@H]1CN(C)Cc1ccc(C(F)(F)F)cc1"
answerlabel = "inactive"

[[record]]
compound = "O=C(c1ccc(F)cc1)C1CCN(Cc2cn[nH]c2-c2ccccc2)CC1"
answerlabel = "active"

[[record]]
compound = "C[C@H]1CN([C@@H](C)CO)C(=O)c2cc(C3=CCCCC3)cnc2O[C@@H]1CN(C)C(=O)Cc1ccccc1"
answerlabel = "inactive"

